test: in vitro; conditions: rat, gh3-tre-luc cells, AC50 (uM) modified / 1000
Structures can show the parent of a compound that is named as a salt.
CC50 at 24 h listing for selected compounds.

Solved cases below.
INSERT INTO measurements (compound, measured_quantity, recorded_result) VALUES
  ('CCC(C)=NO', 'CC50 at 24 h', '> 90 µM'),
  ('CCC=CCCOC(=O)c1ccccc1O (stereo in doubt) [(3Z)-Hex-3-en-1-yl salicylate]', 'CC50 at 24 h', '> 90 µM'),
  ('C[C@@H]1C/C=C/C=C/C=C/C=C/[C@H](O[C@@H]2O[C@H](C)[C@@H](O)[C@H](N)[C@@H]2O)C[C@@H]2O[C@](O)(C[C@@H](O)C[C@H]3O[C@@H]3/C=C/C(=O)O1)C[C@H](O)[C@H]2C(=O)O', 'CC50 at 24 h', '> 50 µM'),
  ('N#CC(Cl)Cl', 'CC50 at 24 h', '72.9 µM'),
  ('O=S(=O)(O)c1ccc(Nc2nc(Nc3ccc(/C=C/c4ccc(Nc5nc(Nc6ccc(S(=O)(=O)O)cc6)nc(N(CCO)CCO)n5)cc4S(=O)(=O)O)c(S(=O)(=O)O)c3)nc(N(CCO)CCO)n2)cc1', 'CC50 at 24 h', '> 60 µM'),
  ('CCCC(C(=O)OCCN(CC)CC)(c1ccccc1)c1ccccc1 [Proadifen hydrochloride]', 'CC50 at 24 h', '24.7 µM'),
  ('CC[C@@H](C(=O)O)[C@@H]1O[C@@H]([C@@H](C)[C@H](O)[C@H](C)C(=O)[C@H](CC)[C@H]2O[C@]3(C=C[C@@H](O)[C@]4(CC[C@@](C)([C@H]5CC[C@](O)(CC)[C@H](C)O5)O4)O3)[C@H](C)C[C@@H]2C)[C@@H](C)C[C@@H]1C', 'CC50 at 24 h', '0.153 µM'),
  ('CN1C[C@@H](NS(=O)(=O)N(C)C)C[C@@H]2c3cccc4c3c(cn4C)C[C@H]21', 'CC50 at 24 h', '22.3 µM'),
  ('CCN[C@H]1CN(CCCOC)S(=O)(=O)c2sc(S(N)(=O)=O)cc21 [Brinzolamide]', 'CC50 at 24 h', '> 20 µM'),
  ('CN(C)CCN(Cc1ccc(Cl)cc1)c1ccccn1 [Chloropyramine hydrochloride]', 'CC50 at 24 h', '10.2 µM');

Query: // CC50 at 24 h lookup, key: S=C=Nc1cccc2ccccc12 [alpha-Naphylisothiocyanate]
Reply: > 90 µM

Query: Okay, and S=C=NCc1ccccc1 [Benzyl isothiocyanate] ?
Reply: > 90 µM

Query: Request: CCCN [Propylammonium nitrate]
Reply: > 90 µM

Query: Next compound up: O=C=NCCCCCCN=C=O
Reply: > 90 µM

Query: Please give the result for COC(C)OC too.
Reply: > 90 µM

Query: Now try CCOc1ccccc1N .
Reply: > 90 µM
